Target: BMX (Homo sapiens, UniProt P51813)
Construct: purchased in-house DSF panel (SGC Frankfurt)
Sequence (P51813 411-675): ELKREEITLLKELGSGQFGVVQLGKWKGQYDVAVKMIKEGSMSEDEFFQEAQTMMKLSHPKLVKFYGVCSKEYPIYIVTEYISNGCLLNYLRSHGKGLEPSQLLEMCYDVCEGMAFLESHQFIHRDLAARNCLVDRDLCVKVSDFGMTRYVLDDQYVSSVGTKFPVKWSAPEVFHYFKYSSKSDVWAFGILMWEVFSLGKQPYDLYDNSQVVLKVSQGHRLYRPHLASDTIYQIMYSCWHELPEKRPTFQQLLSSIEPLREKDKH
Assay: DSF
Assay type: binding
reported property: ΔTm BMX (°C)

{"compound": "COC(=O)c1cc(Nc2ccnc(NCCOCCNC(=O)OC(C)(C)C)n2)[nH]n1 [21d]", "reported property": "ΔTm BMX", "numeric result": 0.2}
{"compound": "COC(=O)c1cc(Nc2ccnc(NCc3ccc(NC(=O)OC(C)(C)C)cc3)n2)[nH]n1 [21i]", "reported property": "ΔTm BMX", "numeric result": -0.1}
{"compound": "CC(C)(C)OC(=O)Nc1ccc(CNc2nccc(Nc3cc(C(=O)OC(C)(C)C)[nH]n3)n2)cc1 [43d]", "reported property": "ΔTm BMX", "numeric result": -0.4}
{"compound": "CC(C)OC(=O)c1cc(Nc2ccnc(NCc3ccc(NC(=O)OC(C)(C)C)cc3)n2)n[nH]1 [42d]", "reported property": "ΔTm BMX", "numeric result": -0.1}
{"compound": "N#CCc1ccc(Nc2nccc(Nc3cc(C4CC4)[nH]n3)n2)cc1 [compound 1, reference compound]", "reported property": "ΔTm BMX", "numeric result": 4.4}

====

Biological target: STK17B (Homo sapiens, UniProt O94768)
Construct: purchased in-house DSF panel (SGC Frankfurt)
Sequence (O94768 25-329): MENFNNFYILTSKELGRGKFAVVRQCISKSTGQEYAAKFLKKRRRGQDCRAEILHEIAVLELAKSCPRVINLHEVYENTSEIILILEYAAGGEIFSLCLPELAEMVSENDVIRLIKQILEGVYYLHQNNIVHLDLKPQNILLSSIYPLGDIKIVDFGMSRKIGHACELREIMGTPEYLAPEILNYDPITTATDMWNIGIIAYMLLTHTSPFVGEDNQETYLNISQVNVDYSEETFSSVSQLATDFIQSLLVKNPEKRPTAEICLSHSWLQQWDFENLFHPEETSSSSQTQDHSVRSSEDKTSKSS
Test: DSF
Type: binding

{"molecule": "COC(=O)c1cc(Nc2ccnc(NCCOCCNC(=O)OC(C)(C)C)n2)[nH]n1 [21d]", "ΔTm STK17B / °C": 1.6}
{"molecule": "COC(=O)c1cc(Nc2ccnc(NCc3ccc(NC(=O)OC(C)(C)C)cc3)n2)[nH]n1 [21i]", "ΔTm STK17B / °C": 3.4}
{"molecule": "N#CCc1ccc(Nc2nccc(Nc3cc(C4CC4)[nH]n3)n2)cc1 [compound 1, reference compound]", "ΔTm STK17B / °C": 9.7}
{"molecule": "CC(C)OC(=O)c1cc(Nc2ccnc(NCc3ccc(NC(=O)OC(C)(C)C)cc3)n2)n[nH]1 [42d]", "ΔTm STK17B / °C": -2.8}
{"molecule": "CC(C)(C)OC(=O)Nc1ccc(CNc2nccc(Nc3cc(C(=O)OC(C)(C)C)[nH]n3)n2)cc1 [43d]", "ΔTm STK17B / °C": -2.5}

====

# Lookup of reported pEC50 keyed by entry
Target: T1, CDK9/Cyclin T1 (Homo sapiens, UniProt P50750)
T1 construct: Full-length kinases were obtained as plasmids cloned in frame with a terminal NanoLuc-fusion; CS1810C177 (CCNT1); host or cells: HEK293T
T1 sequence (P50750 whole entry, the tested form may be a part): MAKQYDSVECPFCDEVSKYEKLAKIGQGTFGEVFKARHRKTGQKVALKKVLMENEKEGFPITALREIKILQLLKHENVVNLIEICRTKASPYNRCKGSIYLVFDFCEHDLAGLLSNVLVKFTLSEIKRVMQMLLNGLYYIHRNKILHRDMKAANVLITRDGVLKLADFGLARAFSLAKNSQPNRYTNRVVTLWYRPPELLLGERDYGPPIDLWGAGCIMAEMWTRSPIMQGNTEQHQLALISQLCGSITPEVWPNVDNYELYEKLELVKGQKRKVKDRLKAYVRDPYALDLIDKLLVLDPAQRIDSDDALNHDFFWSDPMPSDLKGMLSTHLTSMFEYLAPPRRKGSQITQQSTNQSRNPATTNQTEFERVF
T1 sequence (O60563 whole entry partner, the tested form may be a part): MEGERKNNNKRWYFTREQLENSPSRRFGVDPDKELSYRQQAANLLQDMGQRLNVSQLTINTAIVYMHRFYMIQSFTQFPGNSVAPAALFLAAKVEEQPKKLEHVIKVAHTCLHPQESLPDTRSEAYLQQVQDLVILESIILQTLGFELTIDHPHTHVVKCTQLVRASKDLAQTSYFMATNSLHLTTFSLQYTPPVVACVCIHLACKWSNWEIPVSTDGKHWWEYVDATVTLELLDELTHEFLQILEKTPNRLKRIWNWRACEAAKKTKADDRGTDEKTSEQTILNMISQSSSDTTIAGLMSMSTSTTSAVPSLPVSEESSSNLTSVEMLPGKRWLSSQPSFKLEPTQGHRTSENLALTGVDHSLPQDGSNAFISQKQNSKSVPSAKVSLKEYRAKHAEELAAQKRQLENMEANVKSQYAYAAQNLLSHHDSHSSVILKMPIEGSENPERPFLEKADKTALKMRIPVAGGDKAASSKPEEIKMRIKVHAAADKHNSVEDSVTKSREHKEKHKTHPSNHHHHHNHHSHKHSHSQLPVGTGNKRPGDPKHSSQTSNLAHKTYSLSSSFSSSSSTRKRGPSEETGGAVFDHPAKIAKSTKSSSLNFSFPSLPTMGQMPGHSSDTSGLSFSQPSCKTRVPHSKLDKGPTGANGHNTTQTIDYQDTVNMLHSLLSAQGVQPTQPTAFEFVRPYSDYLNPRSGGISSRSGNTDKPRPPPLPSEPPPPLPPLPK
Assay: NanoBRET
Assay type: cell-based
Details: read-out: NanoBRET EC50 ± SEM CDK9/Cyclin T1
pEC50: −log10 of the molar value.
reported property: pEC50

{"compound": "CC(C)(C)OC(=O)Nc1ccc(CNc2nccc(Nc3cc(C(=O)OC(C)(C)C)[nH]n3)n2)cc1 [43d]", "numeric result": 6.09}
{"compound": "CC(C)OC(=O)c1cc(Nc2ccnc(NCc3ccc(NC(=O)OC(C)(C)C)cc3)n2)n[nH]1 [42d]", "numeric result": 6.39}
{"compound": "COC(=O)c1cc(Nc2ccnc(NCc3ccc(NC(=O)OC(C)(C)C)cc3)n2)[nH]n1 [21i]", "numeric result": 5.16}
{"compound": "N#CCc1ccc(Nc2nccc(Nc3cc(C4CC4)[nH]n3)n2)cc1 [compound 1, reference compound]", "numeric result": 7.06}
